- Test system: Pimephales promelas
- Test name: 96 h LC50 (-log10 mol/L); higher = more toxic
Measured endpoint: 96 h LC50 (-log10 mol/L)
The response must contain the number and no unit.

Here are 2 molecules together with their reported answers.
>  <Molecule>
ClC1=C(Cl)[C@]2(Cl)[C@@H]3[C@@H]4C[C@@H]([C@H]5O[C@@H]45)[C@@H]3[C@@]1(Cl)C2(Cl)Cl

>  <Assay target>
Pimephales promelas

>  <96 h LC50 (-log10 mol/L)>
7.21

$$$$
>  <Molecule>
CCOC(=O)C(C)N(C(=O)c1ccccc1)c1ccc(Cl)c(Cl)c1 (stereo not drawn)

>  <Assay target>
Pimephales promelas

>  <96 h LC50 (-log10 mol/L)>
5.81

$$$$

Would you kindly share the measured 96 h LC50 (-log10 mol/L) for CC1(C)[C@@H]2CC[C@@]1(C)C(=O)C2 ?
3.14

CCCCCCCCCCC(C)=O ?
5.19

Same question, Nc1ccc(F)cc1 this time
3.82

# repeat for CCOP(=S)(OCC)Oc1ccc(S(C)=O)cc1 (stereo not drawn)
3.85

Entry to check: COP(=S)(OC)Oc1ccc(Sc2ccc(OP(=S)(OC)OC)cc2)cc1
4.14

CC(=O)/C=C/C1=C(C)CCCC1(C)C ?
4.58

Follow-up item: O=C(Oc1ccccc1)c1ccccc1O
5.28

Next record, please: CCCCCCCCCCc1ccc(N)cc1
6.57

Try CCOP(=S)(Oc1ccc([N+](=O)[O-])cc1)c1ccccc1 (stereo not drawn) next.
6.21

Queued: C=C[C@@]1(C)CC[C@H]2C(=CC[C@@H]3[C@]2(C)CCC[C@@]3(C)C(=O)O)C1
5.54

Next molecule: CCC(O)C(C)CO (stereo not drawn)
1.13

Do the same for O=[N+]([O-])c1ccc(F)cc1 please
3.7

# repeat for BrCC1CCCCO1 (stereo not drawn)
2.94

Do the same for CCN(CC)c1nc(C)cc(OP(=S)(OC)OC)n1 please
5.09

Then CC(C)(c1cc(Cl)c(O)c(Cl)c1)c1cc(Cl)c(O)c(Cl)c1 ?
5.44

Moving on to the next molecule: CCCCCCCCBr
5.36

Now the molecule OC1COC(O)C(O)C1O (stereo not drawn)
0.6

Also Cc1ccc([N+](=O)[O-])c(N)c1 ?
3.79

Next entry: CC(Oc1cc(Cl)c(Cl)cc1Cl)C(=O)O (stereo not drawn)
4.2

Please give the result for O=C(O)C(Cl)(Cl)Cl too.
1.91

Try the molecule O=[N+]([O-])c1ccccc1O
2.94

Query CCNc1cccc(C)c1 next
3.44

What do we get for CCOP(=O)(OCC)OP(=O)(OCC)OCC ?
5.35

Quick one: CCCCCCCCCCCO
5.22

Please do the same for CC(Cl)(Cl)Cl as well.
3.4

Ok, now CCOC(=O)CC(S)C(=O)OCC (stereo not drawn)
3.77

====

- Tested on: Tetrahymena pyriformis
- Test name: 48 h IGC50 (-log10 mol/L); higher = more toxic
Measured endpoint: 48 h IGC50 (-log10 mol/L)
Please reply with the number alone, leaving off any unit.

// worked examples, 48 h IGC50 (-log10 mol/L) included
>  <Compound>
Fc1cccc2ccccc12

>  <Measured endpoint>
48 h IGC50 (-log10 mol/L)

>  <Reported value>
3.39

$$$$
>  <Compound>
CCCC[N+](=O)[O-]

>  <Measured endpoint>
48 h IGC50 (-log10 mol/L)

>  <Reported value>
2.31

$$$$
>  <Compound>
CC(C)c1cccc(O)c1

>  <Measured endpoint>
48 h IGC50 (-log10 mol/L)

>  <Reported value>
3.61

$$$$
>  <Compound>
CCCCCCCCC(O)CO (configuration not stated)

>  <Measured endpoint>
48 h IGC50 (-log10 mol/L)

>  <Reported value>
3.76

$$$$

Param readout= 48 h IGC50 (-log10 mol/L); system= Tetrahymena pyriformis; entry= N#Cc1ccc(C=O)cc1 ; returns value.
3.04

Moving on to CCCI
2.61

Field entry: C=COC(=O)CCCCC
3.08

CC(=O)Nc1ccc(O)cc1 , same question.
2.18

Same lookup for CCCCCCCCNC(N)=S , please.
4.51

Note, next up: O=[N+]([O-])c1cc(Cl)cc(Cl)c1[N+](=O)[O-]
5.42

====

The entries below are paired with their reported 48 h LC50 (-log10 mol/L).
- System: Daphnia magna
- Test name: 48 h LC50 (-log10 mol/L); higher = more toxic
Reply: number alone, nothing else.

Example entries begin here.
>  <Compound>
CC(C)c1ccccc1

>  <48 h LC50 (-log10 mol/L)>
3.77

$$$$
>  <Compound>
CC[C@H]1OC(=O)[C@H](C)[C@@H](O[C@H]2C[C@@](C)(OC)[C@@H](O)[C@H](C)O2)[C@H](C)[C@@H](O[C@@H]2O[C@H](C)C[C@H](N(C)C)[C@H]2O)[C@](C)(O)C[C@@H](C)CN(C)[C@H](C)[C@@H](O)[C@]1(C)O

>  <48 h LC50 (-log10 mol/L)>
3.79

$$$$
>  <Compound>
Cc1cccc([N+](=O)[O-])c1

>  <48 h LC50 (-log10 mol/L)>
4.04

$$$$
>  <Compound>
ClC(Cl)C(Cl)Cl

>  <48 h LC50 (-log10 mol/L)>
3.46

$$$$
>  <Compound>
CCCSc1ccc2nc(NC(=O)OC)[nH]c2c1

>  <48 h LC50 (-log10 mol/L)>
7.04

$$$$

Enter reported 48 h LC50 (-log10 mol/L) observed with Daphnia magna for O=[N+]([O-])c1ccc(O)c([N+](=O)[O-])c1
4.61

====

- Test system: Tetrahymena pyriformis
- Test name: 48 h IGC50 (-log10 mol/L); higher = more toxic
Think of 3 as a floor: if 48 h IGC50 (-log10 mol/L) stands on it or above, it is Yes; beneath it, No.

A selection of reference data follows.
>  <Smiles string>
CCCC#CC(=O)OCC

>  <Class label>
Yes

$$$$
>  <Smiles string>
CCSc1ccccc1

>  <Class label>
Yes

$$$$
>  <Smiles string>
O=C(CBr)c1ccc2ccccc2c1

>  <Class label>
Yes

$$$$
>  <Smiles string>
CC(=O)OC1=CCCCC1

>  <Class label>
No

$$$$
>  <Smiles string>
OCCCCCCCl

>  <Class label>
No

$$$$
>  <Smiles string>
c1ccc2c(c1)oc1ccccc12

>  <Class label>
Yes

$$$$

Could you verify whether the entry Brc1ccoc1 shows 48 h IGC50 (-log10 mol/L) of no less than 3?
No

Also check Oc1ccc(O)cc1
Yes

====

- Test system: Pimephales promelas
- Test name: 96 h LC50 (-log10 mol/L); higher = more toxic
Each entry below lists one item and its recorded 96 h LC50 (-log10 mol/L) value.

Illustrative cases are given below, each with its answer.
>  <Compound>
C=CCNc1ccccc1

>  <96 h LC50 (-log10 mol/L)>
3.57

$$$$
>  <Compound>
C#CC(C)O (centres undefined)

>  <96 h LC50 (-log10 mol/L)>
3.78

$$$$
>  <Compound>
Nc1cc([N+](=O)[O-])cc([N+](=O)[O-])c1

>  <96 h LC50 (-log10 mol/L)>
3.93

$$$$
>  <Compound>
CCOC(=O)CCCCC(=O)OCC

>  <96 h LC50 (-log10 mol/L)>
4.05

$$$$
>  <Compound>
c1cc[n+]2c(c1)-c1cccc[n+]1CC2

>  <96 h LC50 (-log10 mol/L)>
4.12

$$$$
>  <Compound>
c1ccccc1

>  <96 h LC50 (-log10 mol/L)>
3.44

$$$$

API: value(readout=96 h LC50 (-log10 mol/L), system=Pimephales promelas) for record c1ccc2c(c1)CCO2
3.17

For Clc1ccccc1-c1ccccc1 then?
4.67

Same thing, different compound: CCOC(=O)/C=C\C(=O)OCC
3.98

And what about the compound CCC(C)n1c(=O)[nH]c(C)c(Br)c1=O (centres undefined) ?
3.15

Lookup CC1(C)C(C=C(Cl)Cl)C1C(=O)OC(C#N)c1ccc(F)c(Oc2ccccc2)c1 (centres undefined)
8.6

====

- Tested on: Daphnia magna
- Test name: 48 h LC50 (-log10 mol/L); higher = more toxic
Measured endpoint: 48 h LC50 (-log10 mol/L)
// response body must contain only the number

>  <Smiles string>
CCCN(CCC)c1c([N+](=O)[O-])cc(C(C)C)cc1[N+](=O)[O-]

>  <48 h LC50 (-log10 mol/L)>
7.01

$$$$
>  <Smiles string>
CC(C)(C)NC(=O)[C@@H]1C[C@@H]2CCCC[C@@H]2CN1C[C@@H](O)[C@H](Cc1ccccc1)NC(=O)[C@H](CC(N)=O)NC(=O)c1ccc2ccccc2n1

>  <48 h LC50 (-log10 mol/L)>
4.27

$$$$
>  <Smiles string>
Cc1ccccc1C

>  <48 h LC50 (-log10 mol/L)>
3.79

$$$$
>  <Smiles string>
O=NN(c1ccccc1)c1ccccc1

>  <48 h LC50 (-log10 mol/L)>
4.4

$$$$

Now for another entry.
Fill in: 48 h LC50 (-log10 mol/L) of O=[N+]([O-])c1cc(Cl)cc(Cl)c1 is ___
4.43
